- subject_of_test: HuR RRM3 (human, UniProt Q15717 241-326)
- Sequence (Q15717 241-326): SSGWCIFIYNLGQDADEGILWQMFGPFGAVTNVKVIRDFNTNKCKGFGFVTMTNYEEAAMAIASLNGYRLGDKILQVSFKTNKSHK
- assay_text: ITC
quantity_name: pKd
// pKd here means minus log10 of the molar concentration (mol/L)

Query: What pKd value was documented for this binder, UUUAUU (ssRNA) ?
Result: 5.25
